system: Wolbachia pipientis; assay: Anti-Wolbachia Cell-Based Screen; format: functional; design: scale not given: in the data most compounds retested in dose-response had high values; conditions: 5 µM
Out of some 48,000 compounds screened, about 13,000 (27%) showed an effect of 50% or more. Some of the results follow.
# Lookup of reported Percent Effect keyed by entry

| compound | Percent Effect, % |
| --- | --- |
| CN(C)C(=O)CN1CCOCC2(C1)CN(c1ncc(F)cn1)CCO2.O=C(O)C(F)(F)F (stereo not given) | 98.39 |
| O=C(N[C@@H]1CN(c2ncccn2)[C@@H]2CCCO[C@@H]21)c1cscn1 | -1.481 |
| N#Cc1ccc(CNC(=O)NC2CCN(CC(F)F)CC2)cc1 | 3.671 |
| CCn1cc(NC(=O)c2cccc(CN3C[C@@H](C)O[C@@H](C)C3)c2)nn1 | 90.95 |
| CN(C(=O)c1ccncc1F)c1ccccc1S(C)(=O)=O | 0.2118 |
| CCCn1cc(NC(=O)c2cccc(CN3CC[C@H](O)C3)c2)nn1 | 12.98 |
| Fc1ccc(N2CCOC3(COCCN(c4ncccn4)C3)C2)cc1.O=C(O)C(F)(F)F (stereo not given) | 20.84 |
| Cc1ccc(C(=O)O)cc1S(=O)(=O)Nc1nn(-c2ccccc2)cc1C | -18.22 |
| CN(C)C(=O)CN1CCOCC2(CCN(CC3CCOC3)CC2)C1.O=C(O)C(F)(F)F.O=C(O)C(F)(F)F (stereo not given) | -17.88 |
| CN(C)C(=O)CN1CCOCC2(CCN(c3ncc(F)cn3)CC2)C1.O=C(O)C(F)(F)F | 94.37 |

Just for reference, ChEMBL document CHEMBL3988442 is where these values come from.
